Biological target: T1, 4H678-AA
T1 chain: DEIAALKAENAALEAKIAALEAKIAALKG
Experiment: two-hybrid library CCmax;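 note: natural log of median RNA to DNA barcode read ratio; higher means stronger binding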
Settings: mean of both orientations
READOUT NAME: interaction score
One number for each entry.

DKNAALEAEIAALEAKIAALEAKNAALKG [4H3112-AA] ... -1.37
DKIAALKAEIAALEAKNAALKAEIAALEG [4H2617-AA] ... 0.485
DENAALKAEIAALKAKIAALEAENAALKG [4H1636-AA] ... -1.1

I am curious: what interaction score value has been reported for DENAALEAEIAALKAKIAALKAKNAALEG [4H1135-AA] ? -0.965

Measured values drawn from paper PMC10397247 for this set.
